As shown below, each of these molecules has a reported full width at half maximum (nm) value.
experiment.summary: oil ink tested by UV-Vis spectrophotometer
Type: physicochemical
condition.description: oil ink in dodecane; wavelength range at half height of absorption at λ max
Report as a plain number; the unit nm is understood.

Example entries and their recorded answers appear below.
CCCCCCCCc1ccc(N=Nc2ccc(N=Nc3ccc4c5c(cccc35)NC(CC)(CC)N4)c3ccccc23)cc1 [D8-C2,2]; 300
CCCCCCCCCCc1ccc(N=Nc2ccc(N=Nc3ccc4c5c(cccc35)NC(CC)(CC)N4)c3ccccc23)cc1 [D10-C2,2]; 320

// full width at half maximum (nm) value for CCCCCCCCCCc1ccc(N=Nc2ccc(N=Nc3ccc4c5c(cccc35)NC(C)(CCCC)N4)c3ccccc23)cc1 (racemic) [D10-C1,4] : 320

// full width at half maximum (nm) value for CCCCCCCCc1ccc(N=Nc2ccc(N=Nc3ccc4c5c(cccc35)NC(CC(C)C)(CC(C)C)N4)c3ccccc23)cc1 [D8-C4,4] : 300

// full width at half maximum (nm) value for CCCCc1ccc(N=Nc2ccc(N=Nc3ccc4c5c(cccc35)NC(CC(C)C)(CC(C)C)N4)c3ccccc23)cc1 [D4-C4,4] : 250

// full width at half maximum (nm) value for CCCCCCCCCCc1ccc(N=Nc2ccc(N=Nc3ccc4c5c(cccc35)NC(CC(C)C)(CC(C)C)N4)c3ccccc23)cc1 [D10-C4,4] : 320

###

experiment.summary: maximum absorption wavelength and molar absorption coefficient in dodecane
Type: physicochemical
condition.description: maximum absorption wavelength, dodecane
As shown below, each of these compounds has a reported wavelength (nm)/dodecane value.
Report as a plain number; the unit nm is understood.

// wavelength (nm)/dodecane value for CCCCCCCCCCc1ccc(N=Nc2ccc(N=Nc3ccc4c5c(cccc35)NC(CC)(CC)N4)c3ccccc23)cc1 : 580

// wavelength (nm)/dodecane value for CCCCCCCCCCc1ccc(N=Nc2ccc(N=Nc3ccc4c5c(cccc35)NC(CC(C)C)(CC(C)C)N4)c3ccccc23)cc1 : 590

// wavelength (nm)/dodecane value for CCCCc1ccc(N=Nc2ccc(N=Nc3ccc4c5c(cccc35)NC(CC(C)C)(CC(C)C)N4)c3ccccc23)cc1 : 560

###

experiment.summary: solubility in dodecane
Assay type: physicochemical
attribute.measured: solubility (%)
Please answer using a numeric value trailed by its unit.

CCCCCCCCCCc1ccc(N=Nc2ccc(N=Nc3ccc4c5c(cccc35)NC(CC)(CC)N4)c3ccccc23)cc1 [D10-C2,2]; 8.00%
CCCCCCCCCCc1ccc(N=Nc2ccc(N=Nc3ccc4c5c(cccc35)NC(C)(CCCC)N4)c3ccccc23)cc1 (racemic) [D10-C1,4]; 2.15%
CCCCc1ccc(N=Nc2ccc(N=Nc3ccc4c5c(cccc35)NC(CC(C)C)(CC(C)C)N4)c3ccccc23)cc1 [D4-C4,4]; 4.00%
CCCCCCCCCCc1ccc(N=Nc2ccc(N=Nc3ccc4c5c(cccc35)NC(CC(C)C)(CC(C)C)N4)c3ccccc23)cc1 [D10-C4,4]; 1.23%
CCCCCCCCc1ccc(N=Nc2ccc(N=Nc3ccc4c5c(cccc35)NC(CC)(CC)N4)c3ccccc23)cc1 [D8-C2,2]; 6.00%

// next item, solubility (%) requested
// solubility (%) value for CCCCCCCCc1ccc(N=Nc2ccc(N=Nc3ccc4c5c(cccc35)NC(CC(C)C)(CC(C)C)N4)c3ccccc23)cc1 [D8-C4,4] : 2.96%

###

As shown below, each of these compounds has a reported wavelength (nm)/dodecane value.
experiment.summary: maximum absorption wavelength and molar absorption coefficient in dodecane
Type: physicochemical
condition.description: maximum absorption wavelength, dodecane

CCCCCCCCc1ccc(N=Nc2ccc(N=Nc3ccc4c5c(cccc35)NC(CC)(CC)N4)c3ccccc23)cc1; 580 nm

// wavelength (nm)/dodecane value for CCCCCCCCc1ccc(N=Nc2ccc(N=Nc3ccc4c5c(cccc35)NC(CC(C)C)(CC(C)C)N4)c3ccccc23)cc1 : 580 nm

// wavelength (nm)/dodecane value for CCCCCCCCCCc1ccc(N=Nc2ccc(N=Nc3ccc4c5c(cccc35)NC(C)(CCCC)N4)c3ccccc23)cc1 (racemic) : 560 nm
